# System: housefly (Musca domestica)
# Experimental Details: Inhibition test on housefly larvae reared in artificial culture until pupation, pupae examined (Test Example 2)
# Format: in vivo
# Condition Summary: thirty larvae reared in artificial culture (powdered animal feed 2 g, bran 14 g, diluted emulsifiable concentrate) until pupation; pupae placed into plastic cup
Endpoint Label: concentration for 50% inhibition (IC50) (ppm)
// return numeric value only (unit: ppm, not printed)

// below: answered compounds
{"columns": ["Compound", "Endpoint Unit", "concentration for 50% inhibition (IC50)"],
 "data": [
  ["Clc1cc(Cl)cc(Oc2ccc(OCCCn3cccn3)cc2)c1", "ppm", 1.8],
  ["Fc1cc(F)cc(Oc2ccc(OCCCn3cccn3)cc2)c1", "ppm", 0.14]
]}

Kindly review the next compound as well.
input: Given the compound Clc1cccc(Oc2ccc(OCCn3cccn3)cc2)c1 [(E)] , what is its reported concentration for 50% inhibition (IC50)?
output: 1.0

* * *

# Tested on: common mosquito (Culex pipiens pallens)
# Experimental Details: Inhibition of emergence of last instar larvae of common mosquito (Test Example 1)
# Type: in vivo
# Condition Summary: last instar larvae, 0.7 ml dilution of emulsifiable concentrate added to 100 ml distilled water, reared for 7 days until emergence
Reported concentration for 50% inhibition (IC50) by item:
// return numeric value only (unit: ppm, not printed)

{"columns": ["Molecule", "Observed"],
 "data": [
  ["c1ccc(Oc2ccc(OCCCc3ccccn3)cc2)cc1", 0.00013],
  ["Fc1cc(F)cc(Oc2ccc(OCCCn3cccn3)cc2)c1", 0.000009],
  ["c1ccc(Oc2ccc(OCCn3cccn3)cc2)cc1", 0.00023]
]}

Kindly review the next compound as well.
input: Report concentration for 50% inhibition (IC50) for c1ccc(Oc2ccc(OCCCn3cccn3)cc2)cc1 tested on common mosquito (Culex pipiens pallens).
output: 0.0007

// data source = patent US5137907A
